- Test system: KB-3-1
- ASSAY_INFO: Cytotoxic Profiling of Annotated Libraries Using Quantitative High-Throughput Screening (AID 1296008); note: nearly all actives have a fitted effect of over 60% in size
- ASSAY_CONTEXT: Five cell lines viability, CellTiter-Glo ATP luminescence, 48-72 h
Records with an inconclusive call do not appear. Active and inactive are the calls of the source. Calls come from the whole dose curve; as a rule, active = well fitted inhibition curve with a large enough effect; inconclusive = small, poorly fitted or top-dose-only effect; inactive = flat fitted curve, though single readings scatter.
Log the outcome using a class from active, inactive

(Q) In this assay, the call recorded for Cn1ncnc1COc1nn2c(-c3c(F)cccc3F)nnc2cc1C1CCC1 was what?
(A) inactive

(Q) In this assay, the call recorded for C/C=C(\C)C(=O)O[C@H]1[C@H](OC(C)=O)[C@]2(CO)[C@H](O)[C@H](O)[C@]3(C)C(=CCC4[C@@]5(C)CC[C@H](O[C@@H]6O[C@H](C(=O)O)[C@@H](O)[C@H](O[C@@H]7OC[C@H](O)[C@H](O[C@@H]8OC[C@H](O)[C@H](O)[C@H]8O)[C@H]7O)[C@H]6O[C@@H]6O[C@H](CO)[C@@H](O)[C@H](O)[C@H]6O)C(C)(C)C5CC[C@]43C)[C@@H]2CC1(C)C (some centres undefined) was what?
(A) inactive

(Q) In this assay, the call recorded for O=C1C[C@@H]2OCC=C3CN4CC[C@]56c7ccccc7N1[C@H]5[C@H]2[C@H]3C[C@H]46 was what?
(A) inactive

(Q) In this assay, the call recorded for COC(=O)C12C(=O)C(C)(O)C(=O)C1(C)C(C)=CC1C34CCC(OC3=O)C(C)(CO)C4CCC12C (centres undefined) was what?
(A) inactive

(Q) In this assay, the call recorded for COc1c(C(C)C)cc2c(c1O)[C@@]1(C(=O)O)CCCC(C)(C)C1CC2 (some centres undefined) was what?
(A) inactive

(Q) In this assay, the call recorded for COC1CC(OC2CCC3(C)C(CCC4C3CCC3(C)C(C5=CC(=O)OC5)C(OC(C)=O)CC43O)C2)OC(C)C1OC1OC(CO)C(O)C(O)C1O (centres undefined) was what?
(A) active

(Q) In this assay, the call recorded for CC1=CC2/C=C(\C)CCC(O)C3OC(C)(C)OC3CC(=O)OC23C(=O)NC(CC(C)C)C3C1C (centres undefined) was what?
(A) inactive

(Q) In this assay, the call recorded for COc1cc(CCNCc2ccccc2O)c(OC)cc1C#N was what?
(A) inactive

(Q) In this assay, the call recorded for COC1CC(O[C@H]2CC[C@]3(C=O)C4CC[C@]5(C)[C@@H](C6=CC(=O)OC6)CC[C@]5(O)[C@@H]4CC[C@]3(O)C2)OC(C)C1O[C@@H]1O[C@H](CO)[C@@H](O)[C@H](O)[C@H]1O (some centres undefined) was what?
(A) active

(Q) In this assay, the call recorded for CC(C)(C)c1cc(C(C)(C)C)c2c(c1)C(O)(C(F)(F)F)C(=O)O2 (centres undefined) was what?
(A) inactive

(Q) In this assay, the call recorded for CCCN1CCO[C@H]2c3cc(O)ccc3OC[C@@H]21 was what?
(A) inactive

(Q) In this assay, the call recorded for C[C@H]1O[C@@H](O[C@H]2C[C@@H](O)[C@]3(CO)C4C(CC[C@]3(O)C2)[C@@]2(O)CC[C@H](C3=CC(=O)OC3)[C@@]2(C)C[C@H]4O)[C@@H](O)[C@@H](O)[C@H]1O (some centres undefined) was what?
(A) active

(Q) In this assay, the call recorded for COCC1OC(=O)c2coc3c2C1(C)C1=C(C3=O)C2CCC(=O)C2(C)CC1O (centres undefined) was what?
(A) inactive

(Q) In this assay, the call recorded for COC1CC(O[C@H]2CC[C@@]3(C)C(=CCC4C3C(O)[C@@H](O)[C@]3(C)[C@@H](C(C)=O)CC[C@]43O)C2)OC(C)C1OC1CC(OC)C(OC2OC(C)C(O)C(O)C2O)C(C)O1 (some centres undefined) was what?
(A) inactive
